This collection of values is drawn from the RNAGym collection of RNA variant scans (doi:10.7554/elife.80360).

B1: Hairpin Ribozyme (parent)
chain: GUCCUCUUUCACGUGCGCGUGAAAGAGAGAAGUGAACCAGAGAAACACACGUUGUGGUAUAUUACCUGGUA

Variants of: B1
experimentDescription: self-cleavage, relative activity (ratio to wild type); higher = more cleavage; co-transcriptional
Property: self-cleavage; scope: individual variants

var | self-cleavage
A11C U67A | 0.116
G1U A11C | 0.0545
G57C G69A | 0.135
A36G C50A | 0.34
U9C G13A | 0.531
G19U G68A | 0.286
U52G U55G | 0.398
U14G U33G | 0.127
A49C U55G | 0.343
C10G A35U | 0.517
G25C A35U | 0.228
C66A G68A | 0.126
U8C G40C | 0.0998
U7G A30U | 0.0317
A43C G56C | 0.165
C4A A44G | 0.0937
G17C A47G | 0.0817
A26U C46U | 0.11
C10U C48A | 0.104
U63G A64U | 0.157
A39U G54U | 0.163
C12U A23C | 0.93
U9C A31C | 0.184
G32A A61U | 0.154
C4A C10U | 0.261
A59U C65A | 0.19
U7A U9A | 0.666
U7G G51A | 0.891
C18A U70C | 0.952
G17C A61U | 0.198
A31G A61U | 0.159
U8C G57C | 0.172
A44C C65U | 0.142
C37U C66A | 0.0721
A11C G27U | 0.365
G1U G17A | 0.2
A39G A59G | 0.116
A35U G56A | 0.143
A61C A71G | 0.286
C4U A45C | 0.122
A24G A71G | 1.07
C10G U63C | 0.104
A36G G57C | 0.124
A28G A35C | 1.27
A39C G54C | 0.213
G29C A30U | 0.0915
